target.system: human CTLA-4 (human) (UniProt P16410)
Sequence (P16410 36-223): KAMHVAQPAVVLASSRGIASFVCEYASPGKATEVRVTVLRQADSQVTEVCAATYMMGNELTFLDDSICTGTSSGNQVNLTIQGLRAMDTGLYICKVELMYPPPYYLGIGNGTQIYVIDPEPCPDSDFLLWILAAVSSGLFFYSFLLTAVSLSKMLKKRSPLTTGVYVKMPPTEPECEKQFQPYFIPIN
test.name: flow cytometry, CHO cells stably expressing CTLA4
test.readout: Fold change to WT CD80 (fold)

{"binder": "CD80 IgV-Fc E35D/D46E/M47L/V68M/L85Q/F92L (Fc fusion) VIHVTKEVKEVATLSCGHNVSVEELAQTRIYWQKDKKMVLTMMSGELNIWPEYKNRTIFDITNNLSIMILALRPSDEGTYECVVQKYEKDALKREHLAEVTLSVKAD", "experimental.result": 0.2}
{"binder": "variant CD80 IgV-Fc E35D/M47L/V68M/D90G (Fc fusion) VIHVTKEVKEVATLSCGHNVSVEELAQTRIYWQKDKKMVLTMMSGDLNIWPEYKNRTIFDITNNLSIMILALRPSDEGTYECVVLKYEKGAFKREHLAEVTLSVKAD", "experimental.result": 20.3}
{"binder": "CD80 IgV-Fc E35D/M47L/V68M/A71G/L85Q/D90G (Fc fusion) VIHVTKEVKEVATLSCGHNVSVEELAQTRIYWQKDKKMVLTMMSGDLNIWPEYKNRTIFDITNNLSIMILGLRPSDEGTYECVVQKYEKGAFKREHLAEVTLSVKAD", "experimental.result": 10.1}
{"binder": "CD80 IgV-Fc H18Y/E35D/M47V/V68M/L85M (Fc fusion) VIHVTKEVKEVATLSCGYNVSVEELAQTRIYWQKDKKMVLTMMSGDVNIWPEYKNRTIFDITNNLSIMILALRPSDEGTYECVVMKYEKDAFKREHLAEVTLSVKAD", "experimental.result": 18.5}
{"binder": "CD80 IgV-Fc H18Y/V22A/E35D/T41S/M47V/T62N/A71G/A91G (Fc fusion) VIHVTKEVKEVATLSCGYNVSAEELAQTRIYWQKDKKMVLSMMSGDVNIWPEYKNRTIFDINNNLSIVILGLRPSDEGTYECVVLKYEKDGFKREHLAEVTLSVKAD", "experimental.result": 10}
{"binder": "variant CD80 IgV-Fc H18Y/A26E/M47L/D90G (Fc fusion) VIHVTKEVKEVATLSCGYNVSVEELEQTRIYWQKEKKMVLTMMSGDLNIWPEYKNRTIFDITNNLSIVILALRPSDEGTYECVVLKYEKGAFKREHLAEVTLSVKAD", "experimental.result": 17.3}
{"binder": "variant CD80 IgV-Fc H18Y/M47L/V68M/D90G (Fc fusion) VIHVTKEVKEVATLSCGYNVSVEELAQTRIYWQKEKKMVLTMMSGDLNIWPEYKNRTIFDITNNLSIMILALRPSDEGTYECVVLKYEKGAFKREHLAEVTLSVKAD", "experimental.result": 14}
{"binder": "variant CD80 IgV-Fc A26E/E35D/V68M/D90G (Fc fusion) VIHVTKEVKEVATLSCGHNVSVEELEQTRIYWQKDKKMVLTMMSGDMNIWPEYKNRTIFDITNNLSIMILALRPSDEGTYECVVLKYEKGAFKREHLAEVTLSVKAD", "experimental.result": 10.2}
{"binder": "variant CD80 IgV-Fc H18Y/A26E/V68M/A71G (Fc fusion) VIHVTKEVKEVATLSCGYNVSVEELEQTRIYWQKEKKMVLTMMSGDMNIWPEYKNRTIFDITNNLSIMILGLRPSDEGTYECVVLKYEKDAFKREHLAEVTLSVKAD", "experimental.result": 8.3}
{"binder": "variant CD80 IgV-Fc H18Y/A26E/E35D/M47L (Fc fusion) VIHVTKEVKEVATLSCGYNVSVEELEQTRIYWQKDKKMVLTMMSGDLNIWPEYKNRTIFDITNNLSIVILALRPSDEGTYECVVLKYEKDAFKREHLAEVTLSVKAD", "experimental.result": 17.7}
{"binder": "variant CD80 IgV-Fc H18Y/A26E/M47L/A71G (Fc fusion) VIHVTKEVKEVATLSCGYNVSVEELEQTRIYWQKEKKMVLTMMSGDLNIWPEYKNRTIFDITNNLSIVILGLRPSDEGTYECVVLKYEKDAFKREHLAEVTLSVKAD", "experimental.result": 16.3}
{"binder": "variant CD80 IgV-Fc H18Y/V68M/A71G/D90G (Fc fusion) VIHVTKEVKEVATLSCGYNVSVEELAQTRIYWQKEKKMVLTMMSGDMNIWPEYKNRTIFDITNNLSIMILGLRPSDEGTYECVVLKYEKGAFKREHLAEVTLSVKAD", "experimental.result": 16.4}
{"binder": "variant CD80 IgV-Fc M47L/V68M/A71G/D90G (Fc fusion) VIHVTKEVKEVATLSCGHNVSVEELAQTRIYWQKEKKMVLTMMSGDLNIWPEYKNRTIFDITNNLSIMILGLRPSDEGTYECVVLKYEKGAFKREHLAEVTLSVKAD", "experimental.result": 12.8}
{"binder": "variant CD80 IgV-Fc E35D/M47L/A71G/D90G (Fc fusion) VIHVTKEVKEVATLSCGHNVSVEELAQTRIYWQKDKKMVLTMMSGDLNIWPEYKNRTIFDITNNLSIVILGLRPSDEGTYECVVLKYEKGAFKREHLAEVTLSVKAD", "experimental.result": 15.4}
{"binder": "variant CD80 IgV-Fc H18Y/A26E/V68M/D90G (Fc fusion) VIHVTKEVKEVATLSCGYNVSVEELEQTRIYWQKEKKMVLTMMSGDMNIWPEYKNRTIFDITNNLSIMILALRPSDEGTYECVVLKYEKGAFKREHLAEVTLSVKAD", "experimental.result": 19}
